Values from patent US20230416287A1

assayInfo: Rat IV/PO pharmacokinetic study
Format: in vivo, Han Wistar rats
measurementParameters: male, Han Wistar, blood, prodrug Example 4, intravenous infusion, 1 mg/kg, mean ± SD, N=3, read-out: Vdss
quantityMeasured: Vd (L/kg)
Write the value in L/kg as a bare number.

Entry under test: Cc1c(N2CN(c3ccc(=O)n(COP(=O)(O)O)c3C)C(=O)c3cc(F)c(Cl)cc32)ccc(F)c1F . Its Vd was 0.687
